Attribution: PubChem BioAssay (NCI)

- METHOD_SUMMARY: NCI Yeast Anticancer Drug Screen. Data for the rad50 strain (AID 155);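 also: 0% = growth of vehicle-only cultures of the same strain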
- CONDITION_LABEL: S. cerevisiae rad50 strain growth inhibition; at 50.0 µM; active compounds read high
The panel holds about 79,000 compounds, 15% with a hit somewhere; the sample as a whole holds those more often.
PROPERTY: growth inhibition (%)
Write it as a number; the unit % goes unstated.

Study these solved cases before continuing.
COc1ccc(N2C(=O)C(=O)C3(CCCCC3)C2=O)c2ccccc12	-6.15
COc1ccc(/C=C2\N=C(c3cc(OC)c(OC)c(OC)c3)OC2=O)cc1OC	7.1
NNS(=O)(=O)c1cccc(S(=O)(=O)NN)c1	-13.9
COc1ccc(OC(=O)Nc2cccc(Cl)c2)cc1	8.4
COc1ccc(OC)c(CC(N)=O)c1	-5.5

Moving on to the next molecule.
Which growth inhibition is listed for NC1c2c(Br)sc(N3CCCC3)c2C(=O)C1O (stereo unspecified) ? 8.05
